Origin of measurements: patent US12060349B2

STUDY_TARGET: glucosylceramide synthase (Homo sapiens, UniProt Q16739)
Construct: Microsomes were isolated from A375 human melanoma cells; endogenous in cells
Sequence (Q16739 1-394): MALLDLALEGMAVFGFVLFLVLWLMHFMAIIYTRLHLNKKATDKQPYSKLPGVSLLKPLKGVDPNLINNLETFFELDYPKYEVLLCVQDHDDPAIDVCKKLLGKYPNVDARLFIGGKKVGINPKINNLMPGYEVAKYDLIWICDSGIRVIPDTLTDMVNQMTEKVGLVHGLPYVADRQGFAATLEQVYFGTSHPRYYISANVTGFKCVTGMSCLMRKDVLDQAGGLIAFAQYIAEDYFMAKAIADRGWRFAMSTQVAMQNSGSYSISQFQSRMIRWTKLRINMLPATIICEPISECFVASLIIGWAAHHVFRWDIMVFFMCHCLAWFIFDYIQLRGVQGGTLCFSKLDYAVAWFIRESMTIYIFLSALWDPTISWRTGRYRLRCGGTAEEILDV
TEST_PROTOCOL: microsomal assay measuring conversion of ceramide to glucosylceramide by HPLC (GCS IC50)
CONDITIONS_USED: concentration causing 50% inhibition of glucosylceramide synthase activity
QUANTITY_MEASURED: IC50 (nM)

> print(dat)
                                    compound  quantity.measured  recorded.value
 1  CNC(=O)c1ccc(Oc2ccc(C(C)(C)NC(=O)OC3CN4CCC3CC4)cc2)cc1 (centres unmarked) [Example 291]               IC50            1910
 2  COCCOc1ccc(-c2ccc(C(C)(C)NC(=O)OC3CN4CCC3CC4)cc2)cn1 (centres unmarked) [Example 307]               IC50             735
 3  CNC(=O)c1ccc(-c2ccc(C(C)(C)NC(=O)N3CCN4CCC3CC4)cc2)cc1 [Example 256]               IC50           12300
 4  CC1(NC(=O)N2CCN(c3cccc(-c4ccccc4)c3)CC2)CCN2CCC1CC2 (centres unmarked) [Example 16]               IC50            49.5
 5  CCOc1ccc(-c2cccc(C(C)(C)NC(=O)OC3CN4CCC3CC4)c2)nn1 (centres unmarked) [Example 318]               IC50            1460
 6  COCCOc1ccc(-c2ccc(C(C)(C)NC(=O)N[C@]3(C)CN4CCC3CC4)cc2)cc1 [Example 158]               IC50            2.85
 7  COCCOc1ccc(C#CC(C)(C)NC(=O)OC2CN3CCC2CC3)cc1 (centres unmarked) [Example 329]               IC50            3140
 8  CCCC1(NC(=O)NC(C)(C)C#Cc2ccc(COC)cc2)CN2CCC1CC2 (centres unmarked) [Example 328]               IC50            25.1
 9  CCCC1(NC(=O)NC(C)(C)c2ccc(-c3ccc(S(=O)(=O)CCCOC)cc3)cc2)CN2CCC1CC2 (centres unmarked) [Example 244]               IC50            37.1
10  COCCCOc1cnc(-c2cccc(C(C)(C)NC(=O)OC3CN4CCC3CC4)c2)nc1 (centres unmarked) [Example 323]               IC50            1160
11  CN(C)C(=O)c1ccc(-c2ccc(C(C)(C)NC(=O)OC3CCN4CCC3CC4)cc2)cc1 (centres unmarked) [Example 259]               IC50             134
12  O=C(OC1CN2CCC1CC2)N1CCN(c2cccc(-c3ccccc3)c2)CC1 (centres unmarked) [Example 18]               IC50             551
13  CCC1(NC(=O)NC(C)(C)c2ccc(-c3ccc(CCO)cc3)cc2)CN2CCC1CC2 (centres unmarked) [Example 225]               IC50            29.4
14  COCCOc1ccc(-c2ccc(C3(NC(=O)OC4CN5CCC4CC5)CC3)cc2)cc1 (centres unmarked) [Example 166]               IC50            5.69
15  COCCCOc1ccc(-c2ccc(C(C)(C)NC(=O)N3CCN4CCC3CC4)cc2)cc1 [Example 174]               IC50             134
16  O=C(N1CCN(c2ccc(-c3ccccc3)cc2)CC1)N1CCN2CCC1CC2 [Example 5]               IC50           30000
17  CCC1(NC(=O)N2CCN(c3cccc(-c4ccc(F)cc4)c3)CC2)CN2CCC1CC2 (centres unmarked) [Example 23]               IC50            1580
